Each recorded value in this set is attributed to PubChem BioAssay (NCATS).

max response listing for selected compounds.
Test: qHTS Assay for Lipid Storage Modulators (AID 1519)
Conditions: Drosophila S3 cells, BODIPY lipid droplet/cell ratio, laser cytometry; measured here: cell count channel max response; cells loaded with oleic acid
Results filed as inconclusive are left out.
Entry rule: numbers only, all in %.

compound	experimentalEndpoint	unitLabel	testResult
COC(=O)N1CCC2(CC1)CN(c1cccc(-c3ccccc3)c1)C2	max response	%	23.2

Reported max response ( COCCNc1ncnc2ccc(-c3ccc(C(=O)N(C)C)cc3)cc12 ) = 4.77

The compound identified as O=C(Nc1ccccc1)N1CC2(CCN(C(=O)c3ccco3)CC2)C1 registered its max response at 21.9

In plain terms, COc1cccc(-c2nccc(-n3ccnc3)n2)c1 has a documented max response of 4.96

Measured max response, COc1cccc(-c2cncnc2NC2CCNCC2)c1 : 12.6

The recorded max response for CC(C)C1NC(=O)[C@H](CCCCN)NC(=O)[C@@H](Cc2c[nH]c3ccccc23)NC(=O)[C@H](Cc2ccc(O)cc2)NC(=O)[C@H](C)N(C)C(=O)[C@H](Cc2ccccc2)NC1=O (some centres undefined) is 25.5

max response recorded for this compound, N#Cc1cccc(-c2nc3cnc(N4CCOCC4)nc3n(C3CC3)c2=O)c1 , is 17.6

Summary for this compound, O=c1cnc2cnc(Oc3cccc(Cl)c3)nc2n1Cc1ccc(F)cc1 : max response is 17.8

Measured max response, COCC(=O)N1CCC2(CCCN(Cc3cc(C(F)(F)F)cc(C(F)(F)F)c3)C2)CC1 : 26.3

# compound Cc1nc2cnc(N(C)C)nc2n(C2CC2)c1=O ; its max response = 14.1

GET /value?item= COC1=C(OC)C(=O)C(C/C=C(\C)CC/C=C(\C)CC/C=C(\C)CC/C=C(/C)CC/C=C(\C)CC/C=C(\C)CC/C=C(\C)CC/C=C(\C)CC/C=C(\C)CCC=C(C)C)=C(C)C1=O &field=max response returns 17.1

Value of max response reported for the compound CS(=O)(=O)N1CCC2(CC1)CN(c1ccncc1)C2 is -19.4

Noted for COc1ccc(NC(=O)N2CC[C@@]3(CCCN(C(=O)c4cccn4C)C3)C2)cc1 : its max response reads 12

Form: compound = O=c1c(-c2cc(F)cc(F)c2)nc2cncnc2n1Cc1ccccc1 ; max response = -10.3
